meta.source: ChEMBL document CHEMBL1123443

# Tested on: B16
# assay-explanation: Effect of compound on the body weight of mice bearing the B16 melanoma at a daily dose of 50 mg/kg
# Assay type: functional, Mus musculus
recorded-endpoint: Change in weight (%)

smiles_representation=COC(=O)SNN(C)S(=O)(=O)c1ccc2ccccc2c1 recorded_endpoint="Change in weight" scale_unit=% observed=-4.8
smiles_representation=COC(=O)SNN(C)S(=O)(=O)c1ccc(OC)cc1 recorded_endpoint="Change in weight" scale_unit=% observed=-18.7
smiles_representation=COC(=O)SNN(C)S(=O)(=O)c1ccc(C)cc1 recorded_endpoint="Change in weight" scale_unit=% observed=-17.7
